biological target: T1, Tag-free human IL6 recombinant protein (GenScript, Cat. No. Z03034) (human, UniProt P05231 30-212); test: indirect ELISA, IL6 coated at 0.5 µg/ml, antibody titrated
T1 construct: Bought recombinant protein; The catalogue number is printed only for the immunogen, and the assays say only 'recombinant IL6 protein' or 'IL6'; also called recombinant IL6 protein; Interleukin 6
measuredQuantity: EC50

**Q:** Item 61G1D8 (rat) (antibody, V domains shown, Rat hybridoma clone; Made recombinantly in HEK293-6E cells as variable region + constant region and purified on protein A as IgG) VH: EVQLLESGGGLVQPGRSMKLSCAASGFTFSSFPMAWVRQTPSKALEWVATISPSGGTSYSRDSVKGRFTISRDNANSTLCLHMDSLKSEDTATYYCLRERIYNTYFDYWGQGVMVTVSS VL: DIRMTHSPASLSASLGETVSIECLPSEDISSDLAWYQQKPGKSPQLLIYNANTLPNGVPSRFSGSRSGAQYFLKINSLQSEDVATYFCQQYDSYPYTFGTGTKLELK : provide EC50
**A:** < 0.025 µg/mL
